For each record, write down the corresponding folding stability dG unfold.
# METHOD NOTES: folding stability dG unfold from chymotrypsin proteolysis; higher = more stable
Answers are plain numbers, in kcal/mol.

SEQ | VALUE
SFRIMASYDPDYGTITVYVQFQDPDNGEPIPAEEIAKEIAEQFPGAKIDDIEPNPDGWFKIEIKVPPGAFSA [r9_87_TrROS] | 2.55
SAGGSAMMLAKVKIELPNGEIVEIPIEFESLEELEEKIKEKARELFPDIPIEDIKILDIELYSLEESAGGSA [r15_220_TrMRF] | 5.32
SAGGSAGGSAGGMVIKITTESGEKIEIEVPEEDEEKVKELVKELEKAGFKVKKVEVFEPSAGGSAGGSAGGS [r10_231_TrROS_Hall] | 1.87

Please report folding stability dG unfold for every entry that follows.
1. SAGGSAGGSAGMLARITLSTPEKPVEYIVPESEVEEYIKKLNLPEDTEVTVTPVDPAALLSAGGSAGGSAGG [r17_395_JUSTAS]
2. SAGGSAGGSAGGKIEIKTFPDGYVLAKIEFPDEDKALVILAKVKPNPGKVLEAIIRPADSAGGSAGGSAGGS [r10_613_TrMRF]
3. SAGGSAGGEKVEKKEVKVELKIVIVVSEELREMSEEELEELLKELAAKLPGVKEVKIEILPLPESAGGSAGG [r6_710_TrROS_Hall]
4. SAGVVVRPGEPVPFYVVRVETELRTRPRPDGSEVTTVETRVEVRPYTVTVGPVPVVEVPPDATDPADAASAG [r5_770_TrMRF]

1: 1.8; 2: 1.51; 3: 1.34; 4: 3.96

---

# METHOD NOTES: folding stability dG unfold from trypsin proteolysis; higher = more stable
For each record, write down the corresponding folding stability dG unfold.

Some entries whose results are on file:
SEQ | folding stability dG unfold
SAGGSAMPPEWQREVVLTPVEIDIPEPPEVEVVEYDPSTGTITISVPKSPLTLTYDALTGTVHTIGSAGGSA [r15_452_JUSTAS] | -0.488 kcal/mol
SMLTITDENGNTITLPAAGEPVTLTVEIEVDGYTVTVEITFDADTKKITIKVEVTNPNGEKQTFTFTFDLSA [r9_1073_TrROS_Hall] | 2.92 kcal/mol
SAGGSAGGSAGKIDPKDIEKVEFEIDEESGKGKAFVILKNGEPAEIEFSSIEEAIKALLGSAGGSAGGSAGG [r11_339_TrMRF] | 1.93 kcal/mol

Please report folding stability dG unfold for every entry that follows.
1. SAGGSAGGSAGGPENDWREVDIKIKFENPEGKPIFDIKIYYMPDGDIMIYFPNGNWIWISAGGSAGGSAGGS [r10_972_TrROS]
2. GLVDEDGKEVFPEVPLVIELDVPENLPDGKKLSPEEVEKLVKGLAEKLKKEYNVKKVEAERKGNKVLILVGS [r1_369_TrMRF]
3. ITIRIPPNGNIRIEMIDPNGKWWTYTFPVKDPEENLQRLKDIIRDFFPGFEDVDVKITEVEDGWVTITVPLS [r1_389_TrROS]

1. 2.42 kcal/mol
2. 0.688 kcal/mol
3. 4.05 kcal/mol

---

# METHOD NOTES: folding stability dG unfold (combined trypsin and chymotrypsin); higher = more stable
For each record, write down the corresponding folding stability dG unfold.

SEQ | folding stability dG unfold
SAGGMTTTVTVEKFPDGSVTEVTTLPNGIVLTTPLPYTKVVPVDPPDGPAVSWGPVTVTSTESVSSEASAGG [r13_236_JUSTAS] | 0.0898 kcal/mol

Please report folding stability dG unfold for every entry that follows.
1. SAGGSAGGSMVPGKLLVTITDPNNGLTTTLDLPLEVKTEEDIEAEVQKIKEENPGKKVSVKLLSAGGSAGGS [r12_65_JUSTAS]
2. SAGGSAGGSAGPPFEVVGVSRHGDSVTVLARNPDSDELVASTFTNGVIGSTAVIPSEEVGSAGGSAGGSAGG [r11_19_TrMRF]

["1.69 kcal/mol", "< -1 kcal/mol"]
